The entries below come with measured EC10, AhR values attached.
assay.target: UniProt P41738
Sequence (P41738 10-853): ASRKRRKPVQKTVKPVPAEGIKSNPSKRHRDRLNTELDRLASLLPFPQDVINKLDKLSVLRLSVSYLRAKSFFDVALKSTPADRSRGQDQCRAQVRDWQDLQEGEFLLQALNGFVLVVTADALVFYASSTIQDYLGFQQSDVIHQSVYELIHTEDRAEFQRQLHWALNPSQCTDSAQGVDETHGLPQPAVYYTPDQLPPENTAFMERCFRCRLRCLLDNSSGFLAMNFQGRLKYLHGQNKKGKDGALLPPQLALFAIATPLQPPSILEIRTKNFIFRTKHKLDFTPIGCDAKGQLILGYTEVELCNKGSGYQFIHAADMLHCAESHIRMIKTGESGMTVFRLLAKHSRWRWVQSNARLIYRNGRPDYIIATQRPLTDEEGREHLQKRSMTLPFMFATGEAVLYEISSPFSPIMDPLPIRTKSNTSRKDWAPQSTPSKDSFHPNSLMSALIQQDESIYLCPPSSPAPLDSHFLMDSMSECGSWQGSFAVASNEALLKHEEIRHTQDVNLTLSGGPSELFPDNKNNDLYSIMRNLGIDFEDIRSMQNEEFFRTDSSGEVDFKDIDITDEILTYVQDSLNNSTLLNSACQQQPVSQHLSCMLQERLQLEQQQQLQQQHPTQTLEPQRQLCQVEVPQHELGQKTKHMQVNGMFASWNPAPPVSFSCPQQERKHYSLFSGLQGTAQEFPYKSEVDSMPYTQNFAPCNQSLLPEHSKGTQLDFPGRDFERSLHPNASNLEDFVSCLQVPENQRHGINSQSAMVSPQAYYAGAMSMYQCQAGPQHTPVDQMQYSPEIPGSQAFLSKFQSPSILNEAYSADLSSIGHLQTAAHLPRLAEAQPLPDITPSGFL
condition.summary: effect
Excerpt: All bioassay media components and the ERα-UAS-bla GripTite and PPARγ-UAS-bla cells were obtained from Thermo Fisher Scientific (Waltham, MA, USA). AREc32 reporter gene cells based on MCF7 were provided by C. Roland Wolf (Cancer Research UK); AhR CALUX cells (H4L7.5c2 derived from H4IIe) were provided by Michael Denison (UC Davis, USA); and SH-SY5Y cells were purchased from Sigma-Aldrich. […]
Give the quantity in µM, number only.

>  <compound>
CC(C)(c1ccc(O)cc1)c1ccc(O)cc1 [BPA, 4,4'-(Propane-2,2-diyl)diphenol, reference compound]

>  <unit.abbrev>
µM

>  <EC10, AhR>
264

$$$$
>  <compound>
Cc1ccc(S(=O)(=O)NC(=O)Nc2cccc(OS(=O)(=O)c3ccc(C)cc3)c2)cc1 [Pergafast]

>  <unit.abbrev>
µM

>  <EC10, AhR>
22.9

$$$$

// query Lab request: please report EC10, AhR under test system UniProt P41738 for CC(C)(c1ccc(O)c(-c2ccccc2)c1)c1ccc(O)c(-c2ccccc2)c1 [BPPH, 2,2-Bis(2-hydroxy-5-biphenylyl)propane]
// result 9.54

// query Lab request: please report EC10, AhR under test system UniProt P41738 for CC(c1ccc(O)cc1)c1ccc(O)cc1 [BPE, 4,4′-Ethylidenbisphenol]
// result 61.9

// query Lab request: please report EC10, AhR under test system UniProt P41738 for COC(=O)C(c1ccc(O)cc1)c1ccc(O)cc1 [Bz, Methyl bis(4-hydroxyphenyl)acetate]
// result 62

###

assay.comment: Acidity constant (pKa) measurement, Sirius T3 UV-metric, and speciation at pH 7.4
condition.summary: from experimental pKa
With a cut-off of 2%, any Negative form (pH = 7.40) strictly below it is called rule met; any Negative form (pH = 7.40) meeting it or above is called rule not met.

For orientation, consider the following solved cases.
>  <compound>
Oc1ccc(Cc2ccc(O)cc2)cc1 [BPF, Bis(4-hydroxyphenyl)methane]

>  <group>
rule met

$$$$
>  <compound>
CC(C)Oc1ccc(S(=O)(=O)c2ccc(O)cc2)cc1

>  <group>
rule not met

$$$$
>  <compound>
O=S(=O)(c1ccc(O)cc1)c1ccc(OCc2ccccc2)cc1 [BPS-MPE, 4-[4-(benzyloxy)benzenesulfonyl]phenol]

>  <group>
rule not met

$$$$
>  <compound>
Cc1ccc(S(=O)(=O)NC(=O)Nc2cccc(OS(=O)(=O)c3ccc(C)cc3)c2)cc1

>  <group>
rule not met

$$$$
>  <compound>
CC(C)(c1ccc(OCC2CO2)cc1)c1ccc(OCC2CO2)cc1 (stereo not shown)

>  <group>
rule met

$$$$

Next up:
// query Is Negative form (pH = 7.40) strictly under 2% for the entry `CCC(C)(c1ccc(O)cc1)c1ccc(O)cc1` ?
// result rule met

###

The entries below come with measured Specificity ratio (SRbaseline) SRERα values attached.
assay.target: Estrogen Receptor ERα (Homo sapiens, UniProt P03372)
Sequence (P03372 311-547 limits assumed): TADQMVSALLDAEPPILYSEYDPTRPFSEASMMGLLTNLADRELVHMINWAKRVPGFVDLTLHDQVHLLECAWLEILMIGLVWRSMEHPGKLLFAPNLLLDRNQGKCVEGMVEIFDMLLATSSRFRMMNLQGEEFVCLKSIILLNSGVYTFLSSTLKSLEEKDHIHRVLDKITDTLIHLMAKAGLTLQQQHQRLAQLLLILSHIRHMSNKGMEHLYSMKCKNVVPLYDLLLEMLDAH
assay.comment: cell-based
condition.summary: against baseline cytotoxicity
Number, no unit, nothing else.

>  <compound>
CC1(C)[C@H](O)C(C)(C)[C@H]1O [t-TMCD]

>  <Specificity ratio (SRbaseline) SRERα>
0.32

$$$$

// query Find the recorded Specificity ratio (SRbaseline) SRERα belonging to CC1(C)C(O)C(C)(C)C1O (racemic) [r-TMCD] and report it.
// result 0.08

// query Find the recorded Specificity ratio (SRbaseline) SRERα belonging to O=S(=O)(c1ccc(O)cc1)c1ccccc1O [2,4-BPS, 2,4'-Dihydroxydiphenyl sulfone] and report it.
// result 27.68

// query Find the recorded Specificity ratio (SRbaseline) SRERα belonging to O=C(OCc1ccccc1)c1ccc(O)cc1 [BzPB, Benzyl 4-hydroxybenzoate] and report it.
// result 5.49

// query Find the recorded Specificity ratio (SRbaseline) SRERα belonging to CC(C)(c1ccc(O)cc1)c1ccc(O)cc1 [BPA, 4,4'-(Propane-2,2-diyl)diphenol, reference compound] and report it.
// result 31.86

The values you see were collected from paper PMC12392461.
